Data origin, for the record: patent US20230349919A1

- EXPERIMENTAL SYSTEM: human IL-6Rα (hIL-6Rα), barcoded negative control antigen (human) (UniProt P08887)
- Sequence (P08887 20-358 limits assumed): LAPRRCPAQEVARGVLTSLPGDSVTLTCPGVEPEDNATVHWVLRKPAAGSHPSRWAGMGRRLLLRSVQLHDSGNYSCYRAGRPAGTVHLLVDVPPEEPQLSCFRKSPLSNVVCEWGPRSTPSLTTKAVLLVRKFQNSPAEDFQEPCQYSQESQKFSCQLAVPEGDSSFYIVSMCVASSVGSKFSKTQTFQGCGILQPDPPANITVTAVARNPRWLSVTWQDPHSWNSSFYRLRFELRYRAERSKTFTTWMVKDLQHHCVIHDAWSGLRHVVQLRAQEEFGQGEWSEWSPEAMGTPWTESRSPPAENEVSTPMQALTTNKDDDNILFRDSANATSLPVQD
- ASSAY NOTES: barcoded-antigen count on source cell (scRNA-seq)
Recorded REGN78.L15 ab raw values for a group of binders are listed next.
PROPERTY: REGN78.L15 ab raw (counts)

>>> numeric_readout("Table 1 Line # 47 antibody (SP_Plasma_cell) (antibody, human IgG4, V domains shown) VH: ELQLVESGGGLVQPGRSLRLSCAASGFPFDAYAMHWVRQAPGKGLQWVSGIRWNGGNIDYVDSVKGRFTISRDNAKNSLYLQLNSLRSEDTALYYCAKDLGGSHYALDVWGQGTMVTVSS VL: DIQMTQSPSSLSASVGARVTITCRASQSINNDLNWYQQKPGKAPKFLIYAASSLQSGVPSRFSGRGSGTDFTLTIRSLQPEDFAVYYCQQTYSSPFTFGPGTKVDLK")
6
>>> numeric_readout("Table 1 Line # 39 antibody (SP_B_cell) (antibody, human IgG4, V domains shown) VH: EVQLVESGGDLVQPGRSLRLSCAASGFTFDDYAMYWVRQTPGKGLEWVSRITWNSGSIGYAGSVQGRFTISRDNAKNSLYLQMNSLRAEDSALYYCAKDIGGSYLGFDYWGQGTLVTVSS VL: EIVLTQSPGTLSLSPGERVTLSCRASQSVSATYFAWYQQKPGQPPRLLIYGASNRATGIPDRFSGSGSGTDFTLTISRLEPEDFAVYYCQQNGNSYTFGQGTILEIK")
17
